Entries and their Ryegrass, Italian plant response rating values follow.
# Tested on: ryegrass, Italian (Lolium multiflorum)
# measurement-notes: Test A preemergence, Italian ryegrass
# Type: in vivo
# measurement-setup: 500 g ai/ha, 0 to 100 scale, 0 is no effect, 100 is complete control
quantity-name: Ryegrass, Italian plant response rating

[
  {
    "molecule": "CC(=O)c1cnc(NC(C)c2cc3ccccc3s2)nc1N (stereo not drawn)",
    "target-desc": "ryegrass, Italian (Lolium multiflorum)",
    "quantity-name": "Ryegrass, Italian plant response rating",
    "experimental-value": 50
  },
  {
    "molecule": "Nc1nc(N[C@@H](c2cc3ccccc3s2)C2CC2)ncc1C(F)(F)F",
    "target-desc": "ryegrass, Italian (Lolium multiflorum)",
    "quantity-name": "Ryegrass, Italian plant response rating",
    "experimental-value": 90
  },
  {
    "molecule": "C[C@H](Nc1ncc(C(F)(F)F)c(N)n1)c1cc2c(F)cccc2o1",
    "target-desc": "ryegrass, Italian (Lolium multiflorum)",
    "quantity-name": "Ryegrass, Italian plant response rating",
    "experimental-value": 0
  },
  {
    "molecule": "C[C@@H](Nc1nc(N)c(C(F)(F)F)c(C(F)(F)F)n1)C1Cc2ccccc2C1",
    "target-desc": "ryegrass, Italian (Lolium multiflorum)",
    "quantity-name": "Ryegrass, Italian plant response rating",
    "experimental-value": 0
  },
  {
    "molecule": "C[C@@H](Nc1ncc(C(F)(F)F)c(N)n1)c1cc2cccc(F)c2s1",
    "target-desc": "ryegrass, Italian (Lolium multiflorum)",
    "quantity-name": "Ryegrass, Italian plant response rating",
    "experimental-value": 100
  },
  {
    "molecule": "C[C@@H](Nc1ncc(C(F)(F)F)c(N)n1)c1csc2ccccc12",
    "target-desc": "ryegrass, Italian (Lolium multiflorum)",
    "quantity-name": "Ryegrass, Italian plant response rating",
    "experimental-value": 80
  },
  {
    "molecule": "CC(Nc1ncc([N+](=O)[O-])c(N)n1)c1cc2ccccc2s1 (stereo not drawn)",
    "target-desc": "ryegrass, Italian (Lolium multiflorum)",
    "quantity-name": "Ryegrass, Italian plant response rating",
    "experimental-value": 80
  },
  {
    "molecule": "CC[C@H](Nc1ncc(C(F)(F)F)c(N)n1)c1cc2ccc(F)cc2s1",
    "target-desc": "ryegrass, Italian (Lolium multiflorum)",
    "quantity-name": "Ryegrass, Italian plant response rating",
    "experimental-value": 0
  },
  {
    "molecule": "CC[C@H](Nc1ncc(C(F)(F)F)c(N)n1)c1cc2ccc(F)cc2o1",
    "target-desc": "ryegrass, Italian (Lolium multiflorum)",
    "quantity-name": "Ryegrass, Italian plant response rating",
    "experimental-value": 0
  }
]

###

# Test system: ducksalad (Heteranthera limosa)
# measurement-notes: Test B flooded paddy test, ducksalad
# Format: in vivo
# measurement-setup: Flood, 250 g ai/ha, applied to paddy water, 2-leaf stage, visual evaluation after 13 to 15 d
quantity-name: Plant response rating, Ducksalad (0 to 100 scale, 0 is no effect, 100 is complete control)

[
  {
    "compound": "CC(Nc1ncc(C#N)c(N)n1)c1cc2ccccc2o1 (racemic) [Compound 19]",
    "experimental-value": 0
  },
  {
    "compound": "CC[C@H](Nc1ncc(C(F)(F)F)c(N)n1)c1cc2ccccc2s1 [Compound 44]",
    "experimental-value": 0
  },
  {
    "compound": "CC(Nc1ncc(C(F)(F)F)c(N)n1)c1coc2cc(Cl)ccc12 (racemic) [Compound 77]",
    "experimental-value": 0
  },
  {
    "compound": "CC(Nc1ncc(S(C)(=O)=O)c(N)n1)c1cc2ccccc2s1 (stereo not drawn) [Compound 107]",
    "experimental-value": 70
  },
  {
    "compound": "CC(Nc1ncc([N+](=O)[O-])c(N)n1)c1cc2ccccc2s1 (stereo not drawn) [Compound 99]",
    "experimental-value": 0
  },
  {
    "compound": "CCC(Nc1ncc(C#N)c(N)n1)c1cc2ccccc2o1 (racemic) [Compound 20]",
    "experimental-value": 0
  },
  {
    "compound": "C[C@@H](Nc1ncc(C(F)(F)F)c(N)n1)c1cc2c(Cl)cccc2s1 [Compound 116]",
    "experimental-value": 60
  },
  {
    "compound": "Nc1nc(NC(c2cc3ccccc3o2)C2CC2)ncc1C(F)(F)F (stereo not drawn) [Compound 89]",
    "experimental-value": 30
  },
  {
    "compound": "Cc1cccc(OCC(C)Nc2ncc(C(F)(F)F)c(N)n2)c1 (stereo not drawn) [Compound 32]",
    "experimental-value": 0
  },
  {
    "compound": "C[C@@H](Nc1nc(N)c(C(F)(F)F)c(C(F)(F)F)n1)c1cc2ccccc2s1 [Compound 59]",
    "experimental-value": 0
  },
  {
    "compound": "C[C@@H](Nc1nc(N)c(C(F)(F)F)c(C(F)(F)F)n1)C1Cc2ccccc2C1 [Compound 67]",
    "experimental-value": 0
  },
  {
    "compound": "C[C@H](Nc1ncc(C(F)(F)F)c(N)n1)c1cc2c(F)cccc2o1 [Compound 74]",
    "experimental-value": 0
  },
  {
    "compound": "CC[C@H](Nc1ncc(C(F)(F)F)c(N)n1)c1cc2ccc(F)cc2o1 [Compound 64]",
    "experimental-value": 0
  },
  {
    "compound": "C[C@H](Nc1ncc(C(F)(F)F)c(N)n1)c1cc2ccccc2s1 [Compound 5]",
    "experimental-value": 0
  },
  {
    "compound": "C[C@@H](Nc1ncc(C(F)(F)F)c(N)n1)c1cc2ccc(Cl)cc2o1 [Compound 29]",
    "experimental-value": 0
  },
  {
    "compound": "C[C@H](Nc1ncc(C(F)(F)F)c(N)n1)c1cc2cccc(F)c2o1 [Compound 72]",
    "experimental-value": 0
  },
  {
    "compound": "CC(Nc1ncc(C(F)(F)F)c(N)n1)c1coc2cc(F)ccc12 (racemic) [Compound 51]",
    "experimental-value": 0
  },
  {
    "compound": "C[C@H](Nc1ncc(C(F)(F)F)c(N)n1)c1cc2ccc(F)cc2s1 [Compound 47]",
    "experimental-value": 0
  }
]

###

# Tested on: pigweed (Amaranthus retroflexus)
# measurement-notes: Test A postemergence, pigweed
# Type: in vivo
# measurement-setup: 500 g ai/ha, 0 to 100 scale
quantity-name: Plant response rating, Pigweed

[
  {
    "molecule": "CCc1ccc2oc([C@@H](C)Nc3ncc(C(F)(F)F)c(N)n3)cc2c1 [Compound 17]",
    "experimental-value": 20
  },
  {
    "molecule": "C[C@H](Nc1ncc(C(F)(F)F)c(N)n1)c1cc2ccccc2s1 [Compound 5]",
    "experimental-value": 90
  },
  {
    "molecule": "CC(CCc1ccccc1)Nc1ncc(C(F)(F)F)c(N)n1 (stereo not drawn) [Compound 23]",
    "experimental-value": 0
  },
  {
    "molecule": "Cc1cccc(OCC(C)Nc2ncc(C(F)(F)F)c(N)n2)c1 (stereo not drawn) [Compound 32]",
    "experimental-value": 60
  },
  {
    "molecule": "CCC(Nc1ncc(C(F)(F)F)c(N)n1)c1cc2ccccc2o1 (racemic) [Compound 28]",
    "experimental-value": 100
  },
  {
    "molecule": "C[C@@H](Nc1ncc(C(F)(F)F)c(N)n1)c1cc2ccc(Cl)cc2o1 [Compound 29]",
    "experimental-value": 100
  },
  {
    "molecule": "C[C@H](Nc1ncc(C(F)(F)F)c(N)n1)C1Cc2ccccc2C1 [Compound 12]",
    "experimental-value": 40
  },
  {
    "molecule": "Cc1cc(F)cc(OCC(C)Nc2ncc(C(F)(F)F)c(N)n2)c1 (stereo not drawn) [Compound 39]",
    "experimental-value": 60
  },
  {
    "molecule": "CC(Nc1ncc(C(F)(F)F)c(N)n1)C1Cc2ccccc2C1 (racemic) [Compound 6]",
    "experimental-value": 100
  },
  {
    "molecule": "CC(Nc1ncc(C(F)(F)F)c(N)n1)c1cc2ccccc2s1 (racemic) [Compound 16]",
    "experimental-value": 100
  },
  {
    "molecule": "C[C@@H](Nc1ncc(C(F)(F)F)c(N)n1)c1cccc2ccccc12 [Compound 3]",
    "experimental-value": 100
  },
  {
    "molecule": "CC(COc1cccc(F)c1)Nc1ncc(C(F)(F)F)c(N)n1 (stereo not drawn) [Compound 37]",
    "experimental-value": 40
  },
  {
    "molecule": "CC(Nc1ncc(C#N)c(N)n1)c1cc2ccccc2o1 (racemic) [Compound 19]",
    "experimental-value": 50
  },
  {
    "molecule": "C[C@@H](Nc1ncc(C(F)(F)F)c(N)n1)c1cc2cc(F)ccc2o1 [Compound 9]",
    "experimental-value": 90
  },
  {
    "molecule": "Cc1cc2oc([C@@H](C)Nc3ncc(C(F)(F)F)c(N)n3)cc2cc1F [Compound 31]",
    "experimental-value": 100
  },
  {
    "molecule": "Cc1cc2cc([C@@H](C)Nc3ncc(C(F)(F)F)c(N)n3)oc2cc1C [Compound 11]",
    "experimental-value": 80
  },
  {
    "molecule": "C[C@@H](Nc1ncc(C(F)(F)F)c(N)n1)c1ccc2ccccc2c1 [Compound 1]",
    "experimental-value": 100
  },
  {
    "molecule": "C[C@@H](Nc1ncc(C(F)(F)F)c(N)n1)c1cc2cc(C(F)(F)F)ccc2o1 [Compound 7]",
    "experimental-value": 90
  }
]
